System: Setaria faberi (SETFA)
Assay: Pre-emergence test, herbicidal damage
Assay type: in vivo
Conditions: 1000 g/ha unless otherwise stated, evaluated after 13 days, five-point scale
parameter: percentage damage caused to the plant, SEFTA

mol smiles	target desc	observed result
Cc1c(Cl)c(-c2ccc(Cl)c(Cl)c2)c(C(=O)O)c(=O)n1-c1ccc(Cl)cc1	Setaria faberi (SETFA)	2 (2=21-40%)
Cc1cc(-c2ccc(Cl)c(Cl)c2)c(C(=O)O)c(=O)n1-c1ccc(F)cc1F	Setaria faberi (SETFA)	0
Cc1c(Br)c(-c2ccc(Cl)c(Cl)c2)c(C(=O)O)c(=O)n1-c1ccc(Cl)cc1F	Setaria faberi (SETFA)	1 (1=1-20%)
Cc1cc(-c2ccc(Cl)c(Cl)c2)c(C(=O)O)c(=O)n1-c1ccc(F)cc1	Setaria faberi (SETFA)	0
Cc1cc(-c2ccc(Cl)c(Cl)c2)c(C(=O)O)c(=O)n1-c1ncc(Cl)cc1Cl	Setaria faberi (SETFA)	0
Cc1cc(-c2ccc(Cl)c(Cl)c2)c(C(=O)O)c(=O)n1Cc1ccc(Cl)cc1F	Setaria faberi (SETFA)	1 (1=1-20%)
CC#Cc1c(-c2ccc(Cl)c(Cl)c2)c(C(=O)O)c(=O)n(-c2cc(F)cc(Cl)c2)c1C	Setaria faberi (SETFA)	0
Cc1cc(-c2ccc(Cl)c(Cl)c2)c(C(=O)O)c(=O)[nH]1	Setaria faberi (SETFA)	0
Cc1[nH]c(=O)c(C(=O)O)c(-c2ccc(Cl)c(Cl)c2)c1C#N	Setaria faberi (SETFA)	0
COCc1c(-c2ccc(Cl)c(Cl)c2)c(C(=O)O)c(=O)n(-c2ccc(F)cc2F)c1C	Setaria faberi (SETFA)	0
Cc1c(-c2ccc(Cl)c(Cl)c2)c(C(=O)O)c(=O)n(C)c1C	Setaria faberi (SETFA)	2 (2=21-40%)
CCc1c(-c2ccc(Cl)c(Cl)c2)c(C(=O)O)c(=O)n(-c2ccc(Cl)cc2F)c1C	Setaria faberi (SETFA)	0
C=Cc1c(-c2ccc(Cl)c(Cl)c2)c(C(=O)O)c(=O)n(-c2ccc(Cl)cc2F)c1C	Setaria faberi (SETFA)	1 (1=1-20%)
Cc1c(Br)c(-c2ccc(Cl)c(Cl)c2)c(C(=O)O)c(=O)n1-c1ccc(F)cc1F	Setaria faberi (SETFA)	1 (1=1-20%)
Cc1[nH]c(=O)c(C(=O)O)c(-c2ccc(Cl)c(Cl)c2)c1Br	Setaria faberi (SETFA)	0
Cc1cc(-c2ccc(Cl)c(Cl)c2)c(C(=O)O)c(=O)n1Cc1ccc(F)cc1F	Setaria faberi (SETFA)	1 (1=1-20%)
Cc1[nH]c(=O)c(C(=O)O)c(-c2ccc(Cl)c(Cl)c2)c1C	Setaria faberi (SETFA)	0
